# melting point annotations
metric: melting point

1) COc1ccc(F)cc1C(=N)Nc1cc(Cl)cc(NC(=O)/C=C/c2ccccc2Cl)c1 [Example 23]    238 to 239 °C
2) N=C(Nc1cccc(NC(=O)/C=C/c2ccccc2C(F)(F)F)c1F)c1ccccc1 [Example 61]    185 to 187 °C
3) O=C(C/C=C/c1ccccc1)Nc1cccc(-n2ccnc2)c1 [Compound (a)]    130 to 133 °C
4) N=C(Nc1ccc(F)c(NC(=O)/C=C/c2ccccc2Cl)c1)c1cccs1 [Example 16]    215 to 216 °C
5) N=C(Nc1cc(Cl)cc(NC(=O)/C=C/c2ccccc2Cl)c1)c1ccccc1 [Example 31]    105 to 115 °C
6) Cc1ncccc1Oc1ccc(NC(=O)/C=C/c2ccccc2C(F)(F)F)cn1 [Example 9]    214 to 216 °C
7) Cc1cccc(/C=C/C(=O)Nc2cccc(NC(=N)c3ccccc3)c2)c1 [Example 39]    179 to 180 °C
8) N=C(Nc1cc(F)cc(NC(=O)/C=C/c2ccccc2C(F)(F)F)c1)c1ccccc1 [Example 137]    103 to 105 °C
9) COc1ccc(Cl)cc1C(=N)Nc1cc(Cl)cc(NC(=O)/C=C/c2ccccc2Cl)c1 [Example 24]    226 to 228 °C
